Assay summary: A CellTox Green Cytotoxicity Assay to monitor cytotoxicity in HEK293 cells - 16 hour (AID 1224888); also: nearly all actives have a fitted effect of over 35% in size
Test conditions: CellTox Green fluorescence; series mostly up to 76.8 µM
Results filed as inconclusive are left out. Activity calls are given as the source filed them. Calls follow the shape of the dose curve; as a rule, active = well fitted activation curve with a large enough effect in the repeat runs; inconclusive = weak or mixed curves; inactive = flat fitted curve, though single readings scatter.
Write down one outcome, taken from active, inactive

Query: How was `O=Nc1ccc(NO)cc1` classified in this test?
Reply: inactive

Query: How about `OCCCc1cccnc1` ?
Reply: inactive

Query: Request: `CCO[Si](C)(C)OCC`
Reply: inactive

Query: Repeat with `Cc1occc1SSc1ccoc1C`
Reply: inactive

Query: Subsequent entry: `CCc1ccc(O)c(C(C)(C)C)c1`
Reply: inactive

Query: Now consider `OCCN1CN(CCO)CN(CCO)C1` .
Reply: inactive

Query: Repeat for the following compound: `COC(=O)NCCC[Si](OC)(OC)OC`
Reply: inactive

Query: // repeat for `CCOC(=O)COc1ccc(C)cc1` and report
Reply: inactive

Query: Next compound up: `CCOC(=O)CN`
Reply: inactive

Query: And what about the compound `C(=C/c1ccccc1)/c1ccccc1` ?
Reply: inactive

Query: Field entry: `COc1cccc(OC)c1O`
Reply: inactive

Query: Would you kindly repeat that for `NC(=O)c1ccccc1N` ?
Reply: inactive

Query: What do you have for `c1cc[nH]c1` ?
Reply: inactive

Query: One more compound: C=CC(C)C#N (stereo not drawn)
Reply: inactive

Query: Can you handle CC(NCCC(c1ccccc1)c1ccccc1)c1ccccc1 (stereo not drawn) next?
Reply: active

Query: Repeat with `OCCCCl`
Reply: inactive

Query: Could you do the same for `Cc1ccc(CCn2c3c(c4cc(Cl)ccc42)CN(C)CC3)cn1` , please?
Reply: inactive

Query: Entry to check: CCCCCCCCCCOCC(O)CN (stereo not drawn)
Reply: active

----------
Assay summary: qHTS assay to identify small molecule agonists of the androgen receptor (AR) signaling pathway in the presence of an antagonist - cell viability counter screen (AID 1259379); also: nearly all actives have a fitted effect of over 25% in size
Test conditions: MDA-kb2 viability, CellTiter-Fluor, 16 h; series mostly up to 92.4 µM
Results filed as inconclusive are left out. Activity calls are given as the source filed them. Calls follow the shape of the dose curve; as a rule, active = well fitted cell-killing curve with a large enough effect in the repeat runs; inconclusive = weak or mixed curves, or effect the other way; inactive = flat fitted curve, though single readings scatter.
Log the outcome using a class from active, inactive

Query: Status in this test for `C(=C/c1ccccc1)/c1ccccc1` ?
Reply: inactive

Query: Next entry: `Brc1ccccn1`
Reply: inactive

Query: Would you kindly repeat that for `CCOC(=O)COc1ccc(C)cc1` ?
Reply: inactive

Query: Do the same for `Cc1cc(Nc2ccc(O)cc2)ccc1N` please
Reply: active

Query: CCCCCCC(C)OC(=O)COc1nc(F)c(Cl)c(N)c1Cl (stereo unspecified) , same question.
Reply: inactive

Query: Repeat for the following compound: `CCCCOc1ccc(C(=O)CCN2CCCCC2)cc1`
Reply: active

Query: Repeat for the following compound: `SCCCCCCCCS`
Reply: inactive

Query: Check CC(C)=CC1CC(C)CCO1 (stereo unspecified) too.
Reply: inactive

Query: Now give it for `c1ccc(Sc2ccccc2)cc1` too.
Reply: inactive

Query: Same lookup for `CN1CN(C)CN(C)C1` , please.
Reply: inactive

Query: Can you handle `CC(=O)C=O` next?
Reply: inactive

Query: Thanks! And `CCCCCCCCCCCCN(CCO)CCO` ?
Reply: active

Query: Moving on to `C=C(C)CCCC`
Reply: inactive

Query: How about `CCc1c(Br)c(Br)c(Br)c(Br)c1Br` ?
Reply: inactive

Query: Same question for CCCC(CC)CCCCCCCN (stereo unspecified) please.
Reply: active

Query: Another compound to look at: `Cc1occc1SSc1ccoc1C`
Reply: inactive
